Hello, the source for this data is patent US20250195521A1, in case you need it.

Listing of entries alongside the reported pIC50.
Target: KRAS WT (Homo sapiens (Human), UniProt P01116+P62937)
Sequence (P01116 other isoform, or with tags, fused parts or gaps): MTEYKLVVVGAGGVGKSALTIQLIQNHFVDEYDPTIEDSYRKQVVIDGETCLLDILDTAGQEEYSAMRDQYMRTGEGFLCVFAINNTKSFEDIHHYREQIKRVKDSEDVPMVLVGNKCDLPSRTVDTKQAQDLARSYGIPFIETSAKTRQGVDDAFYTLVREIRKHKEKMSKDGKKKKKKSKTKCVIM
Sequence (P62937 whole entry): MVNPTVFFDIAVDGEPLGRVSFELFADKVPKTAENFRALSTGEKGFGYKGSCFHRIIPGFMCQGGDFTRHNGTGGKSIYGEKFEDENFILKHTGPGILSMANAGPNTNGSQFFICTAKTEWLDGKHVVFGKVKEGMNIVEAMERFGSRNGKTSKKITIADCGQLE
Assay: Ras-Raf disruption/FRET/MOA assay (BRAF RBD, Cyclophilin A)
Type: biochemical
Details: read-out: KRAS WT FRET data IC50
pIC50: −log10 of the molar value.

Guide cases for pIC50, answers given:
Molecule	Property label	Reported measurement
CCn1c(-c2cccnc2[C@H](C)OC)c2c3cc(ccc31)-c1cc(O)cc(c1)C[C@H](NC(=O)[C@H](C(C)C)N(C)C(=O)[C@@H]1NC[C@@H]3C[C@@H]31)C(=O)N1CCC[C@H](N1)C(=O)OCC(C)(C)C2 [Compound A217]	pIC50	7.00 to 8.00
CCn1c(-c2cccnc2[C@H](C)OC)c2c3cc(ccc31)-c1cc(O)cc(c1)C[C@H](NC(=O)[C@H](C(C)C)N(C)C(=O)C1CCC3(CCOC3)O1)C(=O)N1CCC[C@H](N1)C(=O)OCC(C)(C)C2 (some centres unmarked) [Compound A409]	pIC50	7.00 to 8.00
CCn1c(-c2cccnc2[C@H](C)OC)c2c3cc(ccc31)-c1csc(n1)C[C@H](NC(=O)[C@H](C(C)C)N(C)C(=O)N1CCC[C@H](N(C)C)C1)C(=O)N1CCC[C@H](N1)C(=O)OCC(C)(C)C2 [Compound A569]	pIC50	6.00 to 7.00

Exam item: What measured pIC50 goes with CCn1c(-c2cccnc2[C@H](C)OC)c2c3cc(ccc31)-c1csc(n1)C[C@H](NC(=O)[C@H](C(C)C)N(C)C(=O)[C@H]1CCN(C(C)=O)C1)C(=O)N1CCC[C@H](N1)C(=O)OCC(C)(C)C2 [Compound A244] ?
Marked response: 5.00 to 6.00

Exam item: Param item = CCn1c(-c2cccnc2[C@H](C)OC)c2c3cc(ccc31)-c1csc(n1)C[C@H](NC(=O)C1(F)CCC1)C(=O)N1CCC[C@H](N1)C(=O)OCC(C)(C)C2 [Compound A361] ; retrieve measured pIC50.
Marked response: 6.00 to 7.00
